- assay.procedure: Plasma pharmacokinetics after a single s.c. dose
- Assay type: in vivo, human
- experimental.parameters: human, plasma, sc, 10 mg, AUC0-last, geometric mean, 10 mg single s.c. dose, healthy adults, NCA, N = 6
*1 amine or outer side, *2 acyl side, *3 side chain or, on linkers, in order; H or OH if unused. Where a SMILES comes first, the peptide text is derived from it. Bridges are numbered along the chain shown (N, C = ends). [ ]: non-standard residue; d: D form. The star is where a group is joined. Orn(4R-OH,5R-OCH2CH2NMe3+) = C[N+](C)(C)CCO[C@@H](N[*:3])[C@H](O)C[C@H](N[*:1])C(=O)[*:2]; pTerphenylCO(4''-OnC5H11) = CCCCCOc1ccc(-c2ccc(-c3ccc(C(=O)*)cc3)cc2)cc1; hTyr(3S-OH,4S-OH) = N[C@H](C(=O)O)[C@H](O)[C@@H](O)c1ccc(O)cc1; Pro(3S-OH,4S-Me) = C[C@H]1CN[C@H](C(=O)O)[C@H]1O; Hyp = O=C(O)[C@@H]1C[C@@H](O)CN1
outcome.measure: AUC(0-t) (ng·h/mL)
Give the number; ng·h/mL is assumed, so skip it.

Task item: // returns reported AUC(0-t) for input CCCCCOc1ccc(-c2ccc(-c3ccc(C(=O)N[C@H]4C[C@@H](O)[C@@H](OCC[N+](C)(C)C)NC(=O)[C@@H]5[C@@H](O)[C@@H](C)CN5C(=O)[C@H]([C@@H](C)O)NC(=O)[C@H]([C@H](O)[C@@H](O)c5ccc(O)cc5)NC(=O)[C@@H]5C[C@@H](O)CN5C(=O)[C@H]([C@@H](C)O)NC4=O)cc3)cc2)cc1 [rezafungin] ({pTerphenylCO(4''-OnC5H11)}-[Orn(4R-OH,5R-OCH2CH2NMe3+)]T[Hyp][hTyr(3S-OH,4S-OH)]T[Pro(3S-OH,4S-Me)]; lactam 1-C)
Reply: 32800
